Reference for the values: paper PMC8497620

system under test: C. neoformans Sgl1 (Cryptococcus neoformans var. grubii)
Sequence (J9W473 entry or part of it): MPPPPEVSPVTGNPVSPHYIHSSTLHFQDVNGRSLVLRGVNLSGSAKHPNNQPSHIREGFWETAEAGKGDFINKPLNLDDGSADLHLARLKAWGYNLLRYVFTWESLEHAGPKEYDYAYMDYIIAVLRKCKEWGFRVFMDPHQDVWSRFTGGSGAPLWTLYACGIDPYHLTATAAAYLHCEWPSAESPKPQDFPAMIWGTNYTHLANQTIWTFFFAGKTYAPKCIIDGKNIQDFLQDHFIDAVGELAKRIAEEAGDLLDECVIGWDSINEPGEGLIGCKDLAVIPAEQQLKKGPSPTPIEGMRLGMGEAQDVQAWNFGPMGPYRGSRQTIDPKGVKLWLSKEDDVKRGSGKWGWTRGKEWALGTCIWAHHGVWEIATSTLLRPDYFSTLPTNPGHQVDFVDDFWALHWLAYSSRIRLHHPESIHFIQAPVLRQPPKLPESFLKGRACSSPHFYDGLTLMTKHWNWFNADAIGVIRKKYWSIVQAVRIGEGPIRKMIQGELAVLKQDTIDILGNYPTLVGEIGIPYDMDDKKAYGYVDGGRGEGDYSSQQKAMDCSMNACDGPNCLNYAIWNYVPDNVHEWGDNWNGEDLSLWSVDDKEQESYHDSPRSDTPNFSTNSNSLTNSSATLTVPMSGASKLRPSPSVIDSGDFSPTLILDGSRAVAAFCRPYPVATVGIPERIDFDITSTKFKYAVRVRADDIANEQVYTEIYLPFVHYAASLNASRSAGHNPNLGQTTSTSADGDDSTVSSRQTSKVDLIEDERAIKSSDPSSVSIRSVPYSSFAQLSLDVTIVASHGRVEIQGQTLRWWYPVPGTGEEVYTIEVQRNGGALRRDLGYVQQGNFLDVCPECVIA
test summary: H/D exchange mass spectrometry mapping of disordered regions
study conditions: H/D exchange MS of C. neoformans Sgl1; per peptide (amino acids Start-End, Sequence); Fig S2a
Short version: % Deuterium incorporation, Average at least 20% is Fulfilled, less is Not fulfilled.

Kindly determine if % Deuterium incorporation, Average recorded for "NACDGPNCLNY" is above or exactly 20%.
Not fulfilled

Kindly determine if % Deuterium incorporation, Average recorded for "SLEHAGPKEYD" is above or exactly 20%.
Not fulfilled

Kindly determine if % Deuterium incorporation, Average recorded for "QQLKKGPSPTPIEG" is above or exactly 20%.
Not fulfilled

Kindly determine if % Deuterium incorporation, Average recorded for "YVQQGNF" is above or exactly 20%.
Fulfilled

Kindly determine if % Deuterium incorporation, Average recorded for "DVTIVASHGRVEIQGQTLRWWYPVPGTGE" is above or exactly 20%.
Fulfilled

Kindly determine if % Deuterium incorporation, Average recorded for "SINEPGEGL" is above or exactly 20%.
Not fulfilled

Kindly determine if % Deuterium incorporation, Average recorded for "IGCKDLAVIPAEQQLKKGPSPTPIEG" is above or exactly 20%.
Fulfilled

Kindly determine if % Deuterium incorporation, Average recorded for "RSVPYSSF" is above or exactly 20%.
Fulfilled

* * *

Give % Deuterium incorporation, Average for every item shown.
system under test: C. neoformans Sgl1 (Cryptococcus neoformans var. grubii)
test summary: H/D exchange mass spectrometry mapping of disordered regions
study conditions: H/D exchange MS of C. neoformans Sgl1; per peptide (amino acids Start-End, Sequence); Fig S2a
Write the value in % as a bare number.

Per the records, this substance ( "NASRSAGHNPNLGQTTSTSADGDDSTVSSRQTSKVDLIE" ) has % Deuterium incorporation, Average equal to 100.2

Per the records, this substance ( "LRWWYPVPGTGE" ) has % Deuterium incorporation, Average equal to 31.2

Per the records, this substance ( "IATSTLLRPDYFSTLPTNPGHQVDF" ) has % Deuterium incorporation, Average equal to 31.3

Per the records, this substance ( "VQRNGGAL" ) has % Deuterium incorporation, Average equal to 39.7

Per the records, this substance ( "TVPMSGASKLRPSPSVIDSGDFSPTL" ) has % Deuterium incorporation, Average equal to 57.8

Per the records, this substance ( "YACGIDPYHLTATA" ) has % Deuterium incorporation, Average equal to 18.2

Per the records, this substance ( "VTIVASHGRVEIQGQTLRWWYPVPGTGEE" ) has % Deuterium incorporation, Average equal to 22.0

Per the records, this substance ( "SLEHAGPKEYDYA" ) has % Deuterium incorporation, Average equal to 6.0

Per the records, this substance ( "IEDERAIKSSDPSSVS" ) has % Deuterium incorporation, Average equal to 106.2

Per the records, this substance ( "DVTIVASHGRVEIQGQTLRWWYPVPGTGEEV" ) has % Deuterium incorporation, Average equal to 19.0

Per the records, this substance ( "RRDLGYV" ) has % Deuterium incorporation, Average equal to 59.6

Per the records, this substance ( "LTVPMSGASKLRPSPSVIDSGD" ) has % Deuterium incorporation, Average equal to 65.2

Per the records, this substance ( "ATLTVPMSGASKLRPSPSVIDSGDFSPTL" ) has % Deuterium incorporation, Average equal to 63.6

Per the records, this substance ( "AASLNASRSAGHNPNLGQTTSTSADGDDSTVSSRQTSKVDL" ) has % Deuterium incorporation, Average equal to 100.9

Per the records, this substance ( "AVRVRADDIANE" ) has % Deuterium incorporation, Average equal to 16.0

Per the records, this substance ( "WESLEHAGPKEYD" ) has % Deuterium incorporation, Average equal to 6.6

Per the records, this substance ( "WALGTCI" ) has % Deuterium incorporation, Average equal to 3.3

Per the records, this substance ( "LRWWYPVPGTGEEV" ) has % Deuterium incorporation, Average equal to 23.5

Per the records, this substance ( "IEVQRNGGAL" ) has % Deuterium incorporation, Average equal to 28.7

Per the records, this substance ( "FCRPYPVA" ) has % Deuterium incorporation, Average equal to 21.1

Per the records, this substance ( "RADDIANE" ) has % Deuterium incorporation, Average equal to 33.8

Per the records, this substance ( "AASLNASRSAGHNPNLGQTTSTSADGDD" ) has % Deuterium incorporation, Average equal to 99.7

Per the records, this substance ( "YAIWNYVPDNVHEWGDN" ) has % Deuterium incorporation, Average equal to 15.4

Per the records, this substance ( "FSTLPTNPGHQVDF" ) has % Deuterium incorporation, Average equal to 50.7

Per the records, this substance ( "MRLGMGEAQDVQAWNFGPMGPYRGSRQTIDPKGVKL" ) has % Deuterium incorporation, Average equal to 19.3

Per the records, this substance ( "AVIPAEQQL" ) has % Deuterium incorporation, Average equal to 59.2

Per the records, this substance ( "DVQAWNFGPMGPYRGSRQTIDPKGVKL" ) has % Deuterium incorporation, Average equal to 26.1

Per the records, this substance ( "RWWYPVPGTG" ) has % Deuterium incorporation, Average equal to 40.0

Per the records, this substance ( "VQAWNFGPMGPYRGSRQTIDPKGVKL" ) has % Deuterium incorporation, Average equal to 24.9

Per the records, this substance ( "MRLGMGEAQ" ) has % Deuterium incorporation, Average equal to 9.3

Per the records, this substance ( "YVDGGRGEGDY" ) has % Deuterium incorporation, Average equal to 69.5

Per the records, this substance ( "YTHLANQ" ) has % Deuterium incorporation, Average equal to 4.9

Per the records, this substance ( "WSVDDKEQESY" ) has % Deuterium incorporation, Average equal to 71.0

Per the records, this substance ( "DITSTKFKYAVRVRADD" ) has % Deuterium incorporation, Average equal to 4.2

Per the records, this substance ( "CVIGWDSINEPGEGLIGCKDL" ) has % Deuterium incorporation, Average equal to 4.2

Per the records, this substance ( "VWEIATSTLLRPDYFS" ) has % Deuterium incorporation, Average equal to 21.9

Per the records, this substance ( "HCEWPSAESPKPQDFPAM" ) has % Deuterium incorporation, Average equal to 59.9

Per the records, this substance ( "LAVIPAEQQLKKGPSPTPIEG" ) has % Deuterium incorporation, Average equal to 28.2

Per the records, this substance ( "VQRNGGALRRDLG" ) has % Deuterium incorporation, Average equal to 72.0

Per the records, this substance ( "YLHCEWPSAESPKPQDF" ) has % Deuterium incorporation, Average equal to 52.9

Per the records, this substance ( "KGRACSSPHFYDGLTL" ) has % Deuterium incorporation, Average equal to 28.7

Per the records, this substance ( "VNLSGSAKHPNNQPSHIREGF" ) has % Deuterium incorporation, Average equal to 45.8

Per the records, this substance ( "WAHHGVWEI" ) has % Deuterium incorporation, Average equal to 2.5

Per the records, this substance ( "WSRFTGGSGAPLWTL" ) has % Deuterium incorporation, Average equal to 5.9

Per the records, this substance ( "DDKKAYGYVDGGRGEGDYSSQQKAMD" ) has % Deuterium incorporation, Average equal to 28.0

Per the records, this substance ( "YTHLANQTIWTFF" ) has % Deuterium incorporation, Average equal to 3.1

Per the records, this substance ( "AIWNYVPDNVHEWGDN" ) has % Deuterium incorporation, Average equal to 23.9

Per the records, this substance ( "IDSGDFSPTLIL" ) has % Deuterium incorporation, Average equal to 26.0

Per the records, this substance ( "LRKCKEWGF" ) has % Deuterium incorporation, Average equal to -8.6

Per the records, this substance ( "YVDGGRGEGDYSSQQ" ) has % Deuterium incorporation, Average equal to 65.8

Per the records, this substance ( "VGEIGIPYDMDDKKAYGYVDGGRGEGDYSSQQKAMD" ) has % Deuterium incorporation, Average equal to 19.4

Per the records, this substance ( "NACDGPNCLN" ) has % Deuterium incorporation, Average equal to 19.4

Per the records, this substance ( "NYVPDNVHE" ) has % Deuterium incorporation, Average equal to 30.1

Per the records, this substance ( "LVLRGVNL" ) has % Deuterium incorporation, Average equal to 7.5

Per the records, this substance ( "IEDERAIKSSDPSSV" ) has % Deuterium incorporation, Average equal to 101.6

Per the records, this substance ( "SRFTGGSGAPLWTL" ) has % Deuterium incorporation, Average equal to 5.6

Per the records, this substance ( "LAVIPAEQQLKKGPSPTPIEGM" ) has % Deuterium incorporation, Average equal to 28.2

Per the records, this substance ( "WESLEHAGPKEYDY" ) has % Deuterium incorporation, Average equal to 7.1

Per the records, this substance ( "IIDGKNIQD" ) has % Deuterium incorporation, Average equal to 14.1

Per the records, this substance ( "DTIDILGNYPTL" ) has % Deuterium incorporation, Average equal to 14.2

Per the records, this substance ( "LVLRGVN" ) has % Deuterium incorporation, Average equal to 5.8

Per the records, this substance ( "ARLKAWGYNLL" ) has % Deuterium incorporation, Average equal to 2.5

Per the records, this substance ( "YVDGGRGEGD" ) has % Deuterium incorporation, Average equal to 72.5

Per the records, this substance ( "WLSKEDDVKRGSGKWGWTRGKEWALGTCIWAHHGVWE" ) has % Deuterium incorporation, Average equal to 11.7

Per the records, this substance ( "MTKHWNWFNA" ) has % Deuterium incorporation, Average equal to 29.9

Per the records, this substance ( "CVIGWDSINEPGEG" ) has % Deuterium incorporation, Average equal to 3.6

Per the records, this substance ( "IGWDSINEPGEGL" ) has % Deuterium incorporation, Average equal to 4.5

Per the records, this substance ( "NYAIWNYVPDNVHE" ) has % Deuterium incorporation, Average equal to 17.1

Per the records, this substance ( "WLSKEDDVKRGSGKWGWTRGKE" ) has % Deuterium incorporation, Average equal to 27.6

Per the records, this substance ( "STVSSRQTSKVDL" ) has % Deuterium incorporation, Average equal to 98.6

Per the records, this substance ( "YLHCEWPSAESPKPQDFPAM" ) has % Deuterium incorporation, Average equal to 56.9

Per the records, this substance ( "KDLAVIPAEQQLKKGPSPTPIEG" ) has % Deuterium incorporation, Average equal to 24.0
